Assay: DMT solubility in various solvents (super saturated mixture, HPLC)
Assay type: physicochemical
Settings: isopropyl alcohol water
Reported Property: solubility

May I ask what solubility has been recorded for CN(C)CCc1c[nH]c2ccccc12 [DMT, N, N-Dimethyltryptamine] ? > 98 mg/mL

----------
Test: DMT solubility in various solvents (super saturated mixture, HPLC)
Format: physicochemical
Settings: water
Reported Property: solubility

Can you look up the measured solubility of `CN(C)CCc1c[nH]c2ccccc12` for me? < 1000 µg/mL

----------
Experiment: DMT solubility in various solvents (super saturated mixture, HPLC)
Type: physicochemical
Details: tetrahydrofuran
Reported Property: solubility

Entry `CN(C)CCc1c[nH]c2ccccc12` : reported solubility = ? > 106 mg/mL

Data provenance: patent US20230136824A1
